# Target: human TLR8 (Homo sapiens, UniProt Q9NR97)
# Sequence (Q9NR97 27-1041): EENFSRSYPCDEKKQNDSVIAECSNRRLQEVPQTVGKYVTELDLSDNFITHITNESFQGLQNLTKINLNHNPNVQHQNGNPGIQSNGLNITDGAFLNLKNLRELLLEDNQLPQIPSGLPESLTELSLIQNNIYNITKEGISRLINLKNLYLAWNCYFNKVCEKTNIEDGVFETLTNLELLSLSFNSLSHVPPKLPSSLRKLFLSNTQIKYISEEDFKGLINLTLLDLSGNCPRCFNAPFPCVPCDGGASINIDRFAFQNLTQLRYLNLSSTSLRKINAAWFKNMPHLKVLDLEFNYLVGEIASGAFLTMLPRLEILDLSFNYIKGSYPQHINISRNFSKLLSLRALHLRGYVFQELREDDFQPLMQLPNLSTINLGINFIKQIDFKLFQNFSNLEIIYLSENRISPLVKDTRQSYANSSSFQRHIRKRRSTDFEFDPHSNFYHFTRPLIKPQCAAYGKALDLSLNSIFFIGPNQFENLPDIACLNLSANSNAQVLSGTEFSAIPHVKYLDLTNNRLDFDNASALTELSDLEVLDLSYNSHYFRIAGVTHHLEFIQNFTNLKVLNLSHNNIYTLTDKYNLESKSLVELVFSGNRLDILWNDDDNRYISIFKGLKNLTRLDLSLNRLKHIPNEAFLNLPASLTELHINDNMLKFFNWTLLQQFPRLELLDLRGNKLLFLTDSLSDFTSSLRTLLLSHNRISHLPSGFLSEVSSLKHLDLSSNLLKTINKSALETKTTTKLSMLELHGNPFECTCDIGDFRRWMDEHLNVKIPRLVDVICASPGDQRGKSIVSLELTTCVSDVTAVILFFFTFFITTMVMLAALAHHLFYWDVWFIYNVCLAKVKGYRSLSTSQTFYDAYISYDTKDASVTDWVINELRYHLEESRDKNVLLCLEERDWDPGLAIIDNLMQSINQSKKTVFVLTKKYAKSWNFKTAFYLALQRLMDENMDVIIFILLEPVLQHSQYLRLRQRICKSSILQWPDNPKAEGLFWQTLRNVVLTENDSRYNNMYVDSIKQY
# Test: TLR8 inhibition reporter assay (HEK-Blue SEAP)
# Stated Conditions: HEK-Blue cells overexpressing human TLR8, stimulated with R848 15.9 μM, 22 hour incubation
pIC50: −log10 of the molar value.
Outcome: Satisfied for pIC50 of at least 9; Not satisfied for anything lower.

Past entries and their recorded results:
Compound	Assigned Category
Cc1cc2c(C3CCNCC3)n[nH]c2cc1-c1cc(C)c2ncnn2c1	Not satisfied
Cc1cc(-c2cc3[nH]nc(N4CCN(C(C)C)CC4)c3cc2C(C)C)cn2ncnc12	Satisfied
Cc1cc(-c2cc(C)c3ncnn3c2)cc2[nH]ncc12	Not satisfied
Cc1cc(-c2cc3[nH]nc(C4CCC(N5CC(F)C5)CC4)c3cc2C(C)C)cn2ncnc12 (centres unmarked) [Example 152]	Satisfied

Proceed to the following item.
Prompt: Does the reported pIC50 for Cc1cc(-c2cc3[nH]nc(C4CCC(N5CC6(CCO6)C5)CC4)c3cc2C(C)C)cn2ncnc12 (centres unmarked) [Example 156] fall at or above the 9 mark?
Completion: Satisfied

###

# Target: human TLR9 (Homo sapiens)
# Sequence (Q9NR96 26-1032): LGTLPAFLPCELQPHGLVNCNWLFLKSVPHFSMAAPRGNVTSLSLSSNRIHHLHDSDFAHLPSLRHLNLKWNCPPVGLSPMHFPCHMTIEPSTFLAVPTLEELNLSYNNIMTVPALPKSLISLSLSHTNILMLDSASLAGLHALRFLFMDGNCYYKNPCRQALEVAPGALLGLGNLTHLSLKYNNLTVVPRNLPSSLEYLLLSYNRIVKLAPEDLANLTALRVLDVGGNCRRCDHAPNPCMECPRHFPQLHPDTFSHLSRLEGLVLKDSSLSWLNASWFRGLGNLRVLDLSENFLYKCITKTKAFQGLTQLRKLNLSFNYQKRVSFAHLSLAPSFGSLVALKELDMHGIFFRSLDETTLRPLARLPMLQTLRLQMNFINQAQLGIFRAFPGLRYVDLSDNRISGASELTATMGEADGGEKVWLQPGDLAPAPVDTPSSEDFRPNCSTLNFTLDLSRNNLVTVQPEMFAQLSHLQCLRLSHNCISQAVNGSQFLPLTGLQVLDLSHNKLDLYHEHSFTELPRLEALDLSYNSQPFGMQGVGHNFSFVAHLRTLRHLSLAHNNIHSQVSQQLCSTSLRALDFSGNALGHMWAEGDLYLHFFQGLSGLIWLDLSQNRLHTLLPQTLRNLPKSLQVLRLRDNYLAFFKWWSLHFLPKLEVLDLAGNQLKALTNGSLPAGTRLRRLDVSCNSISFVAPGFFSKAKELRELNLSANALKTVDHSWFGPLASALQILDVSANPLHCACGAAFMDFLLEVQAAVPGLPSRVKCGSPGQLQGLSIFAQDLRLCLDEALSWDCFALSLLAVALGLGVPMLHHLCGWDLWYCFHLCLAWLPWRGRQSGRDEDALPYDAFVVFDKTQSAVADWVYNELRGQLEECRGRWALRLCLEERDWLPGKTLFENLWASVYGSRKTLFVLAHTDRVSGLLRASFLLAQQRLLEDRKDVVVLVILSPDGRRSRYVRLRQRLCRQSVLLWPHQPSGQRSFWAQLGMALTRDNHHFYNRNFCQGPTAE
# Test: TLR9 inhibition reporter assay (HEK-Blue SEAP)
# Stated Conditions: HEK-Blue cells overexpressing human TLR9, stimulated with ODN2006 5 nM, 22 hour incubation
Measure: pIC50
Scale for pIC50: -log10 of concentration given in mol/L; no unit attached.

Reference set (5 entries):
Compound	Target	pIC50
Cc1cc(-c2cc3[nH]nc(C4CCC(N5CC6(CCO6)C5)CC4)c3cc2C(C)C)cn2ncnc12 (stereo not shown) [Example 155]	human TLR9 (Homo sapiens)	5.12
Cc1cc(-c2cc3[nH]nc(C4CCC(N5CC6(C5)CS(=O)(=O)C6)CC4)c3cc2C(C)C)cn2ncnc12 (single isomer, unassigned) [Example 143]	human TLR9 (Homo sapiens)	5.17
Cc1cc2c(C3CC(N(C)C)C3)n[nH]c2cc1-c1cc(C)c2ncnn2c1 (single isomer, unassigned) [Example 7]	human TLR9 (Homo sapiens)	5.35
Cc1cc2c(C3CCCN(C(=O)CN(C)C)C3)n[nH]c2cc1-c1cc(C)c2ncnn2c1 (stereo not shown) [Example 40]	human TLR9 (Homo sapiens)	4.88
Cc1cc(-c2cc3[nH]nc(C4CCC(N5CCOCC5)CC4)c3cc2C(C)C)cn2ncnc12 (stereo not shown) [Example 133]	human TLR9 (Homo sapiens)	5.04

Next compound, pIC50 to be filled in.
Prompt: Report pIC50, nothing else, for this compound: Cc1cc(-c2ccc3c(C(=O)NC4CCNCC4)n[nH]c3c2)cn2ncnc12
Completion: 5.36
